This collection of values is drawn from patent US9371374.

Listing of entries alongside the reported Reactivity (OD492).
# Assayed Target: biotinylated HCV core peptide 141-161 (Peptide 2) (HCV-1)
# Experiment Description: EIA, captured mAb
I only need the number, in OD, no unit after it.

Solved cases (2 shown):
HCV 208B-515 (antibody, V domains shown) VH: QVQLQQPGAELVKPGASLKLSCRASGYTFTSYWIHWVKQRPGQGLEWIGEIDPSDSYTNYNQKFKGKATLTVDKSSRAAYMQLSSLTSEDSAVYYCARHYYGVFDSWGQGTKLTVSS VL: QIVFTQYPAIMSASLGERVTMTCTASSSVTSSYLHWFQQKPGSSPKLWIYSTSNPGSGVPARFSGRGSGTSYSLSISSMEAEDAATYYCLQFHRSPWTFGGGTKLEIRR: 0.13
HCV 208A-638 (antibody, V domains shown) VH: QGQLQQPGAEFVKPGASLKLSCRASGYTFTSYWIHWVKQRPGQGLEWIGEVDPSDSYINQNEKFRGKATLTVDKSSSTAYMQLGSLTSEDSAVYYCARHYYGVLDSWGQGTALTVSS VL: QIVLTQSPTIMSASLGERVTMTCTASSSVSSSYLHWFQQKPGSSPKLWIYSTSNLASGVPPRFSGSGSGTSYSLSISSVEAEDVATYYCLQFHRSPWTFGGGAKLEIKR: 2.96

Next, consider the following binder.
For HCV 208B-826 (antibody, V domains shown) VH: DVQLVESGGGLVQAGGSRKLSCAASGFPFSSFGMHWVRQAPEKGLEWVASISSRTSKIYYADNLKGRFTISRDNPKNTLFLQMTSLGSEDTAMYYCVRSVFGNSYWFFDVWGAGTTVTVSS VL: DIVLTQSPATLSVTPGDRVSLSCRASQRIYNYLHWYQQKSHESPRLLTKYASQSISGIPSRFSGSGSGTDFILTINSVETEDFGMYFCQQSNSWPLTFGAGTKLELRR , write its Reactivity (OD492).
1.35
